- System: MKL-2
- TEST: qHTS assay to identify novel small-molecules to repurpose for Merkel cell carcinoma treatment (AID 1296009); further: nearly all actives have a fitted effect of over 60% in size
- CONDITIONS_USED: MCC and control cell lines, CellTiter-Glo viability, 72 h; series mostly up to 46 µM
Records with an inconclusive call do not appear. Calls of active or inactive are those of the source. The call rests on the fitted dose curve; in most records, active means well fitted inhibition curve with a large enough effect; inconclusive means small, poorly fitted or top-dose-only effect; inactive means flat fitted curve, though single readings scatter.
Answer with one of the outcomes true (active), false (inactive)

Data request: I'd appreciate the recorded outcome for `CC12CC3CC(C)(C1)CC(N)(C3)C2` from this test.
Data returned: false

Data request: I'd appreciate the recorded outcome for `NC12CC3CC(CC(C3)C1)C2` from this test.
Data returned: false

Data request: I'd appreciate the recorded outcome for `CN1CCN(CCCN2c3ccccc3Sc3ccc(Cl)cc32)CC1` from this test.
Data returned: true

Data request: I'd appreciate the recorded outcome for `CN(C)CCOC(c1ccccc1)c1ccccc1` from this test.
Data returned: false

Data request: I'd appreciate the recorded outcome for `CC[N+](CC)(CC)CCOc1cccc(OCC[N+](CC)(CC)CC)c1OCC[N+](CC)(CC)CC` from this test.
Data returned: false

Continuing:
Data request: I'd appreciate the recorded outcome for `CN(C)c1nc(N(C)C)nc(N(C)C)n1` from this test.
Data returned: false

Data request: I'd appreciate the recorded outcome for CCN1CCCC1CNC(=O)c1cc(S(=O)(=O)CC)c(N)cc1OC (stereo not given) from this test.
Data returned: false

Data request: I'd appreciate the recorded outcome for `Cc1ccc(-c2cc(C(F)(F)F)nn2-c2ccc(S(N)(=O)=O)cc2)cc1` from this test.
Data returned: false

FYI, the data here is from PubChem BioAssay (NCATS).
